assay info: Photophysical characterization (absorption, fluorescence, phosphorescence, lifetime)
Type: physicochemical
run parameters: 5 μM in 0.5% (v/v) DMSO, diluted with 0.1 M NaOH
Procedure: Section S6. Photophysical Characterizations S6.1 Absorption, fluorescence, and phosphorescence spectra Fluorescein and its derivatives were dissolved in DMSO to obtain 1 mM stock solutions. The stock solutions were diluted with deionized water to 10 μM. Supplementary Figure 20. The absorption (black), fluorescence (blue), and phosphorescence (red, slit 25 nm) spectra of FL. Supplementary Figure 21. The absorption (black), fluorescence (blue), and phosphorescence (red, slit 25 nm) spectra of DCF. […]
endpoint label: ΦFL
Number, no unit, nothing else.

Look over these answered cases.
{"structure smiles": "O=C(O)c1c(Cl)c(Cl)c(Cl)c(Cl)c1-c1c2cc(Br)c(=O)c(Br)c-2oc2c(Br)c(O)c(Br)cc12", "ΦFL": 0.170}
{"structure smiles": "O=C(O)c1c(Cl)c(Cl)c(Cl)c(Cl)c1-c1c2cc(I)c(=O)c(I)c-2oc2c(I)c(O)c(I)cc12", "ΦFL": 0.003}
{"structure smiles": "O=C(O)c1c(Cl)c(Cl)c(Cl)c(Cl)c1-c1c2ccc(=O)cc-2oc2cc(O)ccc12", "ΦFL": 0.854}

Reported ΦFL ( O=C(O)c1c(Cl)c(Cl)c(Cl)c(Cl)c1-c1c2cc(Cl)c(=O)c(Cl)c-2oc2c(Cl)c(O)c(Cl)cc12 ) = 0.597

Reported ΦFL ( O=C(O)c1ccccc1-c1c2cc(Cl)c(=O)c(Cl)c-2oc2c(Cl)c(O)c(Cl)cc12 ) = 0.680

Reported ΦFL ( O=C(O)c1ccccc1-c1c2ccc(=O)c(I)c-2oc2c(I)c(O)ccc12 ) = 0.001

Reported ΦFL ( O=C(O)c1ccccc1-c1c2ccc(=O)c(Br)c-2oc2c(Br)c(O)ccc12 ) = 0.303

Reported ΦFL ( O=C(O)c1ccccc1-c1c2cc(I)c(=O)c(I)c-2oc2c(I)c(O)c(I)cc12 ) = 0.003
